Recorded values, source PubChem BioAssay (EPA / NIEHS).

PROTOCOL NOTES: BSK_SAg_PBMCCytotoxicity: PBMC Cytotoxicity Assessment in the BioMAP Diversity Plus: SAg Assay (AID 2283093);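 note: PBMC viability measured as Alamar Blue reduction fluorescence at 546/580 nm; fitted both ways against DMSO so a hit may be loss or gain of signal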;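 for AC50: PBMC superantigen activated with SEB plus TSST-1 one hour after compound addition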
TEST CONTEXT: primary human HUVEC with PBMC
The source made the active and inactive calls. Rule for the calls: active = hit-call score of the fitted dose curve at least 0.9, where 1 is the maximum; inactive = score below 0.9.
RECORDED METRIC: AC50

{"columns": ["SAMPLE SMILES", "RESULT"],
 "data": [
  ["O=P(O)(O)CCC(F)(F)C(F)(F)C(F)(F)C(F)(F)C(F)(F)C(F)(F)C(F)(F)C(F)(F)F", "inactive"],
  ["O=C(NCc1ncc(C(F)(F)F)cc1Cl)c1c(Cl)cccc1Cl", "inactive"],
  ["Cc1ccc(C(=O)c2ccccc2)cc1", "inactive"],
  ["CCCCCCCCCCCCOS(=O)(=O)O", "inactive"],
  ["CC(C)(C)c1ccc(O)c(O)c1", "3.06 µM (active)"],
  ["O=C(CCCN1CCC(O)(c2ccc(Cl)cc2)CC1)c1ccc(F)cc1", "inactive"]
]}

* * *

SYSTEM NAME: Aryl hydrocarbon receptor (Homo sapiens) (UniProt P35869)
Sequence (P35869 whole entry, looked up): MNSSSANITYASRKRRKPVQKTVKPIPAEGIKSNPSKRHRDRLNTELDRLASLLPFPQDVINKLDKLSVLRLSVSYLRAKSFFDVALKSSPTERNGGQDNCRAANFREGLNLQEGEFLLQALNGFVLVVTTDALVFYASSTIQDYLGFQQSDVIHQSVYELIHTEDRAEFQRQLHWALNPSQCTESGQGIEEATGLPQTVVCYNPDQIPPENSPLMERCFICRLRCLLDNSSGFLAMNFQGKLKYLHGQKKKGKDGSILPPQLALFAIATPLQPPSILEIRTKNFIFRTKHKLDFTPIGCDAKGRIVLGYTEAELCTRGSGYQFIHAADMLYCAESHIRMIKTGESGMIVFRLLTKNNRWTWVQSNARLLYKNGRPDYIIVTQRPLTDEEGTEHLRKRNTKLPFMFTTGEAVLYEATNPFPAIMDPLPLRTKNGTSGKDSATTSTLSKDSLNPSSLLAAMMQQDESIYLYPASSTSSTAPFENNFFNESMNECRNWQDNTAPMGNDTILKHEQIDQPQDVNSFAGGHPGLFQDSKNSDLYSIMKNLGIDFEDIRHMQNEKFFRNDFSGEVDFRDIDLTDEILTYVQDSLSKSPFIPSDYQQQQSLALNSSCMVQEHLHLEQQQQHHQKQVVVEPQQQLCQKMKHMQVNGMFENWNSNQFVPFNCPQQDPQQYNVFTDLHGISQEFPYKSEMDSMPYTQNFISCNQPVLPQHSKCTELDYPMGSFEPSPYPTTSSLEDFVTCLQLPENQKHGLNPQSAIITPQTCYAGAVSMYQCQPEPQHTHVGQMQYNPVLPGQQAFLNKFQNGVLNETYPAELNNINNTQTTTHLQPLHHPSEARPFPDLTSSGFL
PROTOCOL NOTES: ATG_Ahr_CIS: Attagene CIS-FACTORIAL HepG2 Assay for human Aryl Hydrocarbon Receptor (Ahr) (AID 2282930)
TEST CONTEXT: HepG2 AhR cis-factorial reporter transcription; actives raise or lower the signal
Method: ATG_CIS is a cell-based, multiplexed-readout assay that uses HepG2, a human liver cell line, with measurements taken at 24 hours after chemical dosing in a 24-well plate.ATG_Ahr_CIS is one of 52 assay component(s) measured or calculated from the ATG_CIS assay. […] This assay endpoint, ATG_Ahr_CIS, was analyzed with bidirectional fitting relative to DMSO as the negative control and baseline of activity. […]
Activity calls are given as the source filed them. Rule for the calls: active = hit-call score of the fitted dose curve at least 0.9, where 1 is the maximum; inactive = score below 0.9.
Labels: 1.0 (active), 0.0 (inactive)

{"columns": ["COMPOUND", "SYSTEM NAME", "CATEGORY"],
 "data": [
  ["CC(C)(c1ccc(Oc2ccc(N)cc2)cc1)c1ccc(Oc2ccc(N)cc2)cc1", "Aryl hydrocarbon receptor (Homo sapiens) (UniProt P35869)", 0.0],
  ["Cc1ccc2ccc3ccc(C)cc3c2c1", "Aryl hydrocarbon receptor (Homo sapiens) (UniProt P35869)", 1.0],
  ["CCO[Si](CCC1CCC2OC2C1)(OCC)OCC (configuration not stated)", "Aryl hydrocarbon receptor (Homo sapiens) (UniProt P35869)", 0.0],
  ["Nc1cc(Cl)c(-c2cc(Cl)c(N)cc2Cl)cc1Cl", "Aryl hydrocarbon receptor (Homo sapiens) (UniProt P35869)", 0.0],
  ["C=COC(=O)C(C)(C)CCCCCC", "Aryl hydrocarbon receptor (Homo sapiens) (UniProt P35869)", 0.0],
  ["CCCCCCCCCCCCCC[n+]1ccccc1", "Aryl hydrocarbon receptor (Homo sapiens) (UniProt P35869)", 0.0],
  ["NCc1cccc(CN)c1", "Aryl hydrocarbon receptor (Homo sapiens) (UniProt P35869)", 0.0]
]}

* * *

Read-out: Interleukin-8 (IL8), CXCL8 (gene 3576)
PROTOCOL NOTES: BSK_MyoF_IL8: BioMAP Diversity Plus: MyoF Assay for Interleukin-8 (IL8) Biomarker Activity (AID 2284261)
TEST CONTEXT: primary human lung fibroblasts
Active and inactive are the calls of the source. How the source made its calls: active means hit-call score of the fitted dose curve at least 0.9, where 1 is the maximum; inactive means score below 0.9.
Outcomes: YES for active, NO for inactive

{"columns": ["COMPOUND", "CATEGORY"],
 "data": [
  ["C=CC(=C)CC/C=C(\\C)CCC=C(C)C", "NO"],
  ["Cc1ccc(C(=O)c2ccccc2)cc1", "NO"],
  ["O=P(O)(O)CCC(F)(F)C(F)(F)C(F)(F)C(F)(F)C(F)(F)C(F)(F)C(F)(F)C(F)(F)F", "NO"],
  ["NC(=NCCCCCCN=C(N)/N=C(\\N)Nc1ccc(Cl)cc1)/N=C(\\N)Nc1ccc(Cl)cc1", "YES"],
  ["CC[N+](CC)(CC)Cc1ccccc1", "NO"],
  ["OCC(F)(F)C(F)(F)C(F)(F)C(F)(F)C(F)(F)C(F)(F)C(F)(F)C(F)(F)C(F)(F)C(F)(F)C(F)(F)F", "NO"],
  ["C=COC(=O)C(C)(C)CCCCCC", "NO"],
  ["CCCCCCCCCCCCCCCCCC[N+](C)(C)Cc1ccccc1", "YES"],
  ["O=C(CC(=O)C(F)(F)C(F)(F)C(F)(F)F)c1cccs1", "NO"],
  ["O=C1c2ccc(O)c(O)c2C(=O)c2c(O)ccc(O)c21", "NO"],
  ["CCCCC(CC)C(=O)OCCOCCOCCOCCOC(=O)C(CC)CCCC (stereo unspecified)", "NO"]
]}

* * *

PROTOCOL NOTES: ACEA_ER_AUC_viability: ACEA Biosciences xCELLigence Real-Time Cell Analysis on Estrogen Receptor Agonism for Viability (AID 2283782);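 note: continuous compound exposure with impedance area under curve over 80 h; hit means loss of impedance signal meaning reduced cell growth or viability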
Records with an inconclusive call do not appear. The source made the active and inactive calls. Rule for the calls: active = hit-call score of the fitted dose curve at least 0.9, where 1 is the maximum; inconclusive = response in the unintended direction; inactive = score below 0.9.
Outcomes: label 1 (active), label 0 (inactive)

{"columns": ["COMPOUND", "CATEGORY"],
 "data": [
  ["Nc1ccn([C@@H]2O[C@H](CO)[C@@H](O)C2O)c(=O)n1 (some centres undefined)", "label 1"],
  ["CN(C)CCOC(c1ccccc1)c1ccccc1", "label 1"],
  ["OCC(F)(F)C(F)(F)C(F)(F)C(F)(F)C(F)(F)C(F)(F)C(F)(F)C(F)(F)C(F)(F)C(F)(F)C(F)(F)F", "label 1"],
  ["CC(C)[C@@H]1CC[C@@H](C)C[C@H]1O", "label 0"]
]}

* * *

PROTOCOL NOTES: CCTE_Padilla_ZF_Score.Any: CCTE's 144 Hour Post-fertilization zebrafish Assay Score for Any Mortality or Malformation, Padilla Lab (AID 2284416)
Description: CCTE_Padilla_ZF_Phenotype_Score is a whole embryo, multiplexed assay using zebrafish ova exposed for 144 hours post fertilization on a 96-well plate.CCTE_Padilla_ZF_Score.Any is one of one assay component(s) measured or calculated from the CCTE_Padilla_ZF_Phenotype_Score assay. […] This assay endpoint, CCTE_Padilla_ZF_Score.Any, was analyzed in the positive analysis fitting direction relative to DMSO as the negative control and baseline of activity. […]
Active and inactive are the calls of the source. How the source made its calls: active means hit-call score of the fitted dose curve at least 0.9, where 1 is the maximum; inactive means score below 0.9.
Classes used: 1 (yes) = active, 0 (no) = inactive

{"columns": ["COMPOUND", "CATEGORY"],
 "data": [
  ["NC(C(F)(F)F)C(F)(F)F", "0 (no)"],
  ["O=C(O)C(F)(F)OC(F)(F)C(F)(F)OC(F)(F)C(F)(F)OC(F)(F)C(F)(F)C(F)(F)C(F)(F)F", "1 (yes)"],
  ["C=CC(F)(F)C(F)(F)C(F)(F)C(F)(F)F", "0 (no)"],
  ["C=CC(=O)OCCC(F)(F)C(F)(F)C(F)(F)C(F)(F)C(F)(F)C(F)(F)C(F)(F)C(F)(F)F", "0 (no)"],
  ["O=CC(F)(F)C(F)(F)C(F)(F)C(F)F", "0 (no)"],
  ["O=P(O)(O)CCC(F)(F)C(F)(F)C(F)(F)C(F)(F)C(F)(F)C(F)(F)C(F)(F)C(F)(F)F", "1 (yes)"],
  ["FC(F)(F)C1(F)C(F)(F)C(F)(F)C(F)(F)C1(F)F", "0 (no)"],
  ["O=CC(F)(F)C(F)(F)C(F)(F)F", "0 (no)"],
  ["FC(F)(F)C1(F)C(F)(F)C(F)(F)C(F)(F)C(F)(C(F)(F)F)C1(F)F (stereo unspecified)", "0 (no)"],
  ["COC(=O)C(F)(F)C(F)(F)C(F)(F)C(F)(F)C(F)(F)F", "0 (no)"],
  ["FC(F)(F)N1C(F)(F)C(F)(F)OC(F)(F)C1(F)F", "0 (no)"]
]}

* * *

SYSTEM NAME: Glucocorticoid receptor (Homo sapiens) (UniProt P04150)
Sequence (P04150 whole entry, looked up): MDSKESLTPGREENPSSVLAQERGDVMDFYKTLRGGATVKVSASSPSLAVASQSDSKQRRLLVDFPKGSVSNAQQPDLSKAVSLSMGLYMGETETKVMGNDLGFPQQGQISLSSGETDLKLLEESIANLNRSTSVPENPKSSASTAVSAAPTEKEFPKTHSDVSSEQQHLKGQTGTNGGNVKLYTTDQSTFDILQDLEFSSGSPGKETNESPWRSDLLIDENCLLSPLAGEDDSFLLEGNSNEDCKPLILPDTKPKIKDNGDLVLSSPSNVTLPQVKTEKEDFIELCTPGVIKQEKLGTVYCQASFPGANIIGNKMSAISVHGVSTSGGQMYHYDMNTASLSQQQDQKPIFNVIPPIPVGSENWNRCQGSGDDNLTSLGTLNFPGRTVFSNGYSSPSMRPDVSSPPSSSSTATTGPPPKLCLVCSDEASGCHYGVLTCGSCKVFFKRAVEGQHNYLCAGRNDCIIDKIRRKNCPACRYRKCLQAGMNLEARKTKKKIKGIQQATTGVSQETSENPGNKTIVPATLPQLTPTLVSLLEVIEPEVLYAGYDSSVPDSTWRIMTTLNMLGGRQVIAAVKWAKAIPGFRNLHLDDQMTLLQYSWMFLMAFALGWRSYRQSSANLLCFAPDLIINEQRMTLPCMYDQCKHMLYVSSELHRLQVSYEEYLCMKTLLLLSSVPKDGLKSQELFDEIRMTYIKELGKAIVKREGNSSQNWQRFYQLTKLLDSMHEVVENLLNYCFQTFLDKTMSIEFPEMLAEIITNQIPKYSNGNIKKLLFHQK
PROTOCOL NOTES: NVS_NR_hGR: NovaScreen (NVS) Nuclear Receptor Binding Assay for human Glucocorticoid Receptor (GR) (AID 2283363)
Results filed as inconclusive are left out. Activity calls are given as the source filed them. Rule for the calls: active = hit-call score of the fitted dose curve at least 0.9, where 1 is the maximum; inconclusive = response in the unintended direction; inactive = score below 0.9.
Outcomes: active, inactive

{"columns": ["SAMPLE SMILES", "CATEGORY"],
 "data": [
  ["C[C@]12CC[C@@H]3c4ccc(O)cc4CC[C@H]3[C@@H]1C[C@@H](O)[C@@H]2O", "inactive"],
  ["CCCCCCCCCCCC", "active"],
  ["CCC(=O)O", "active"],
  ["NC(=NCCCCCCN=C(N)/N=C(\\N)Nc1ccc(Cl)cc1)/N=C(\\N)Nc1ccc(Cl)cc1", "active"],
  ["CCCCc1ccc2ccccc2c1S(=O)(=O)O", "active"],
  ["C=CC(=C)CC/C=C(\\C)CCC=C(C)C", "inactive"]
]}

* * *

Read-out: Matrix Metallopeptidase 1 (MMP1), MMP1 (gene 4312)
PROTOCOL NOTES: BSK_BE3C_MMP1: BioMAP Diversity Plus: BE3C Assay for Matrix Metallopeptidase 1 (MMP1) Biomarker Activity (AID 2283024)
TEST CONTEXT: primary human bronchial epithelial cells; actives raise or lower the signal
Activity calls are given as the source filed them. Rule for the calls: active = hit-call score of the fitted dose curve at least 0.9, where 1 is the maximum; inactive = score below 0.9.
Labels: class 1 = active, class 0 = inactive

{"columns": ["SAMPLE SMILES", "CATEGORY"],
 "data": [
  ["Clc1ccc(Nc2nnc(Cc3ccncc3)c3ccccc23)cc1", "class 0"],
  ["OCC(CO)(CBr)CBr", "class 0"],
  ["CS(=O)(=O)c1ccc([C@@H](CC2CCCC2)C(=O)Nc2cnccn2)cc1Cl", "class 1"],
  ["COc1cc(OC)nc(NC(=O)NS(=O)(=O)Nc2ccccc2C(=O)N(C)C)n1", "class 0"],
  ["CCCCCCCCCCCC", "class 0"],
  ["Cc1ccc(C(=O)c2ccccc2)cc1", "class 0"],
  ["CCCCCCCCCCCCCCCCCC[N+](C)(C)Cc1ccccc1", "class 1"],
  ["Cc1ccc(N=Nc2c(O)ccc3ccccc23)c(C)c1", "class 0"],
  ["COCN(COC)c1nc(N(COC)COC)nc(N(COC)COC)n1", "class 0"],
  ["CN(Cc1cnc2nc(N)nc(N)c2n1)c1ccc(C(=O)N[C@@H](CCC(=O)O)C(=O)O)cc1", "class 0"],
  ["CCOC(=O)CN[C@@H](C(=O)N1CC[C@H]1C(=O)NCc1ccc(/C(N)=N/O)cc1)C1CCCCC1", "class 0"]
]}
